The origin of these recorded values is patent US5925667A.

Test system: Slc:ICR mice
Set-up: species or system male Slc:ICR mice
recorded-conditions: mouse, in vivo
measurement-type: toxicity at single dose (AT), 5 levels

# compound, measurement-type, result-number
rows = [
    ("CCN1CCCC1CNC(=O)c1ccc(OCC=C(C)C)c(OCC=C(C)C)c1 (stereo not drawn)", "toxicity at single dose (AT), 5 levels", 3),
    ("CCN1CCCC1CNC(=O)c1cc(OCC=C(C)C)cc(OCC=C(C)C)c1 (stereo not drawn)", "toxicity at single dose (AT), 5 levels", 5),
    ("CCN1CCCC1CNC(=O)c1ccc(OC/C=C(\\C)CCC=C(C)C)c(OC)c1 (stereo not drawn)", "toxicity at single dose (AT), 5 levels", 4),
    ("CCN1CCCC1CNC(=O)c1ccc(OC/C=C(/C)CCC=C(C)C)cc1 (stereo not drawn)", "toxicity at single dose (AT), 5 levels", 5),
    ("CCN1CCCC1CNC(=O)c1cc(OC/C=C(\\C)CCC=C(C)C)ccc1OC/C=C(\\C)CCC=C(C)C (stereo not drawn)", "toxicity at single dose (AT), 5 levels", 3),
    ("CCN1CCCC1CNC(=O)c1cc(OCC=C(C)C)ccc1OCC=C(C)C (stereo not drawn)", "toxicity at single dose (AT), 5 levels", 3),
]

---

molecules and their reported inhibition at 10 µM
System: isolated gastric fundic gland
procedure-text: CAP: Acid Secretion Inhibition Test In Vitro ([14C]-aminopyrine uptake test)
Format: cell-based, male Japanese White rabbit
recorded-conditions: Oryctolagus cuniculus; final concentration 10^-5 M, histamine 10^-5 M; read-out: acid secretion inhibitory rate (CAP)
measurement-type: inhibition at 10 µM (%)

# molecule, result-number
data = [
    ("CCN1CCCC1CNC(=O)c1cc(OC/C=C(\\C)CCC=C(C)C)ccc1OC/C=C(\\C)CCC=C(C)C (centres unmarked)", 100),
    ("CCN1CCCC1CNC(=O)c1cccc(OC)c1OC/C=C(\\C)CCC=C(C)C (centres unmarked)", 100),
    ("CCN1CCCC1CNC(=O)c1ccc(OCC=C(C)C)c(OCC=C(C)C)c1 (centres unmarked)", 99.7),
    ("CCN1CCCC1CNC(=O)c1cc(OCC=C(C)C)cc(OCC=C(C)C)c1 (centres unmarked)", 100),
    ("CCN1CCCC1CNC(=O)c1ccc(OCC=C(C)C)cc1OCC=C(C)C (centres unmarked)", 100),
    ("CCN1CCCC1CNC(=O)c1ccc(OCC=C(C)C)cc1 (centres unmarked)", 61),
    ("CCN1CCCC1CNC(=O)c1cc(OC/C=C(\\C)CCC=C(C)C)cc(OC/C=C(\\C)CCC=C(C)C)c1 (centres unmarked)", 100),
    ("CCN1CCCC1CNC(=O)c1ccc(OC/C=C(\\C)CCC=C(C)C)c(OC)c1 (centres unmarked)", 99.8),
    ("CCN1CCCC1CNC(=O)c1cc(OCC=C(C)C)ccc1OCC=C(C)C (centres unmarked)", 100),
    ("CCN1CCCC1CNC(=O)c1ccc(OC/C=C(\\C)CCC=C(C)C)nc1 (centres unmarked)", 81),
    ("CCN1CCCC1CNC(=O)c1ccc(OC/C=C(/C)CCC=C(C)C)cc1 (centres unmarked)", 100),
    ("CCN1CCCC1CNC(=O)c1cc(OC)c(OC)c(OCC=C(C)C)c1 (centres unmarked)", 73.1),
    ("CCN1CCCC1CNC(=O)c1ccccc1OC/C=C(\\C)CCC=C(C)C (centres unmarked)", 99.7),
    ("CCN1CCCC1CNC(=O)c1ccccc1SC/C=C(\\C)CCC=C(C)C (centres unmarked)", 98.1),
]
